Source: patent US20060281807A1

Sum values by entry
System: Colon 38 (murine colon adenocarcinoma)
Assay Summary: Disk diffusion assay, zone of inhibition, Colon 38; zone differentials, potency and product
Type: cell-based
Assay Conditions: C38ΔL1210 plus C38ΔCFU
No unit in the answer, only the number.

Past entries and their recorded results:
Compound	Sum
COC(=O)[C@@]12OC[C@@]34C1[C@@H](OC(=O)C=C(C(C)C)C(C)C)C(=O)O[C@@H]3C[C@H]1C(C)=C(O)C(=O)C[C@]1(C)[C@H]4[C@@H](O)[C@@H]2O (stereo partly shown)	750
COC(=O)C12OCC34C(CC5C(C)=C(O)C(=O)CC5(C)C3C(O)C1OC(=O)OCC1COC(C)(C)O1)OC(=O)C(OC(=O)OCC1COC(C)(C)O1)C24 (stereo not shown)	1000
COC(=O)[C@@]12OC[C@]34[C@H]([C@@H](O)[C@@H]1O)[C@@]1(C)CC(=O)C(O)=C(C)[C@@H]1C[C@H]3OC(=O)[C@H](OC(=O)/C=C(\C)C(C)C)[C@@H]24 [Bruceantin, bruceantin]	1050

Let us examine a further case.
In: Which Sum value is on record for COC(=O)[C@@]12OC[C@]34[C@H]([C@@H](O)[C@@H]1O)[C@@]1(C)CC(=O)C(O)=C(C)[C@@H]1C[C@H]3OC(=O)[C@H](OC(=O)CC1(O)CCCC1)[C@@H]24 ?
Out: 1300

* * *

Tested on: Colon 38 (murine colon adenocarcinoma)
Assay Summary: Disk diffusion assay, zone of inhibition, Colon 38; zone differentials, potency and product
Format: cell-based
Assay Conditions: C38ΔL1210 plus C38ΔCFU
Property: Sum

Compound	Sum
COC(=O)[C@@]12OC[C@]34[C@H]([C@@H](O)[C@@H]1O)[C@@]1(C)CC(=O)C(O)=C(C)[C@@H]1C[C@H]3OC(=O)[C@H](OC(=O)C1=CCCCC1)[C@@H]24 [15-O-(1′-cyclohexenoyl)-bruceolide]	550
CCC(O)(CC)CC(=O)OC1C(=O)OC2CC3C(C)=C(O)C(=O)CC3(C)C3C(O)C(O)C4(C(=O)OC)OCC23C14 (centres unmarked)	850
COC(=O)[C@@]12OC[C@]34[C@H]([C@@H](O)[C@@H]1O)[C@@]1(C)CC(=O)C(O)=C(C)[C@@H]1C[C@H]3OC(=O)[C@H](OC(=O)CC(C)(C)C)[C@@H]24 [15-O-(3′,3′-dimethylbutanoyl)-bruceolide]	800

In: Which Sum value is on record for CCC(O)(CC(=O)OC1C(=O)OC2CC3C(C)=C(O)C(=O)CC3(C)C3C(O)C(O)C4(C(=O)OC)OCC23C14)C(C)C (mixture of isomers) ?
Out: 1150

In: What about COC(=O)C12OCC34C(CC5C(C)=C(O)C(=O)CC5(C)C3C(O)C1O)OC(=O)C(OC(=O)OCC1COC(C)(C)O1)C24 (centres unmarked) [15-O-(solketyloxycarbonyl)-bruceolide] ?
Out: 950

* * *

Tested on: Colon 38 (murine colon adenocarcinoma)
Assay Summary: Disk diffusion assay, zone of inhibition, Colon 38; zone differentials, potency and product
Format: cell-based
Assay Conditions: C38ΔL1210 plus C38ΔCFU
Property: Sum
No unit in the answer, only the number.

Past entries and their recorded results:
Compound	Property	Reading
COC(=O)C12OCC34C(CC5C(C)=C(O)C(=O)CC5(C)C3C(O)C1O)OC(=O)C(OC(=O)CC(C)(C)O)C24 (centres unmarked)	Sum	950
COC(=O)C12OCC34C(CC5C(C)=C(O)C(=O)CC5(C)C3C(O)C1O)OC(=O)C(OC(=O)C=C1CCCC1)C24 (centres unmarked) [15-O-(cyclopentylideneacetyl)-bruceolide]	Sum	800
CC(=O)O[C@H]1C(=O)[C@@]2(C)[C@H]([C@H](OC(=O)c3ccccc3)[C@]3(O)C[C@H](OC(=O)[C@H](O)[C@@H](NC(=O)c4ccccc4)c4ccccc4)C(C)=C1C3(C)C)[C@]1(OC(C)=O)CO[C@@H]1C[C@@H]2O [Taxol, taxol]	Sum	700

Let us examine a further case.
In: Which Sum value is on record for COC(=O)C12OCC34C(CC5C(C)=C(O)C(=O)CC5(C)C3C(O)C1O)OC(=O)C(OC(=O)c1cc(C)oc1C)C24 (centres unmarked) ?
Out: 1050
